# assay.summary: Isolated perfused rat kidney
# Type: in vitro ADME, Sprague-Dawley rats
# assay.setup: male, Sprague-Dawley, rat, CLR (renal clearance), Kidney A; 50 µM dose; cumulative urinary excretion / AUC 0–80 min post-dose
measurement.name: CL renal at 50 µM (mL/min)
Use mL/min as the unit, but write only the number.

Exercise: # input compound: "COc1cccc2c1cc([N+](=O)[O-])c1c(C(=O)O)cc3c(c12)OCO3" ; wanted: its CL renal at 50 µM
Key: 0.0014

----------
As shown below, each of these compounds has a reported Concentration in urine value.
# assay.summary: Isolated perfused rat kidney
# Assay type: in vitro ADME, Sprague-Dawley rats
# assay.setup: Kidney B; 70–80 min period; perfused with 50 µM AA-I
Report as a plain number; the unit nM is understood.

compound	units.label	Concentration in urine
COc1cccc2c1cc([N+](=O)[O-])c1c(C(=O)O)cc3c(c12)OCO3	nM	940

Exercise: Which Concentration in urine reading was recorded for the compound "O=C(O)c1cc2c(c3c1c([N+](=O)[O-])cc1c(OS(=O)(=O)O)cccc13)OCO2" ?
Key: 740

Exercise: Now the same for "O=C(O)c1cc2c(c3c1c([N+](=O)[O-])cc1c(O)cccc13)OCO2"
Key: 4380

Exercise: Please answer likewise for "COc1cccc2c1cc1c3c(cc4c(c32)OCO4)C(=O)N1"
Key: 55

Exercise: Follow-up entry: O=C1Nc2cc3c(OC4OC(C(=O)O)C(O)C(O)C4O)cccc3c3c4c(cc1c23)OCO4 (centres unmarked)
Key: 21
